Origin of the recorded values: PubChem BioAssay AID1220

testTarget: Mannose-6-phosphate isomerase (Homo sapiens)
protocolText: MPI inhibition at elevated mannose 6-phosphate – biochemical, fluorescence intensity, high mannose 6-phosphate, primary screen (AID 1220)
runParameters: recombinant PMI enzyme, coupled fluorescence intensity; at 20 µM; hits give high values
Hit rate of the full screen: of about 190,000 compounds, about 1,300 (0.68%) were called active. This is one part of a sample in which actives are shown more often than they occur.
Assign class by inhibition: not lower than 20% means TRUE; lower than 20% means FALSE.

Please review the following examples before continuing.
I'd appreciate it if you could say whether "Cc1ccc(-n2cc(CN3CCNC(=O)CC3)c(-c3cccc(C)c3)n2)cc1" has inhibition at least equal to 20%.
FALSE

I'd appreciate it if you could say whether "COc1ccc(N=Cc2c(O)ccc3ccccc23)cc1" has inhibition at least equal to 20%.
TRUE

I'd appreciate it if you could say whether "Fc1ccccc1N1CCN(c2nnnn2-c2ccccc2)CC1" has inhibition at least equal to 20%.
FALSE

I'd appreciate it if you could say whether Cc1cccc(NC(=O)CC2SC(=NC3CCCCC3)NC2=O)c1 (centres undefined) has inhibition at least equal to 20%.
FALSE

I'd appreciate it if you could say whether "COc1cc(/C=C(\C#N)c2nc3ccccc3s2)cc([N+](=O)[O-])c1O" has inhibition at least equal to 20%.
TRUE

I'd appreciate it if you could say whether "O=C(Nc1ccc2nsnc2c1)N1CCCCCC1" has inhibition at least equal to 20%.
TRUE

---
I'd appreciate it if you could say whether "CC(C)Cc1ccc(/C=C/C(=O)N2CCCCC2)cc1" has inhibition at least equal to 20%.
FALSE

I'd appreciate it if you could say whether O=C(COc1ccccc1)N(Cc1cc2ccccc2[nH]c1=O)CC1CCCO1 (centres undefined) has inhibition at least equal to 20%.
FALSE

I'd appreciate it if you could say whether "COc1cc(NC(=S)Nc2cccc(C)n2)cc(OC)c1OC" has inhibition at least equal to 20%.
FALSE

I'd appreciate it if you could say whether "O=C(Cc1c(Cl)cccc1Cl)NC1=NCCS1" has inhibition at least equal to 20%.
FALSE

I'd appreciate it if you could say whether COC(=O)CC1C(=O)NCCN1Cc1cn(-c2ccc(C)cc2)nc1-c1cccc(C)c1 (centres undefined) has inhibition at least equal to 20%.
TRUE

I'd appreciate it if you could say whether "Cn1c(=O)n(Cc2ccc(Cl)cc2)c(=O)c2c1nc1n2CCN1Cc1ccco1" has inhibition at least equal to 20%.
FALSE

I'd appreciate it if you could say whether "COc1ccc2c(c1)-c1nc(NC(=O)c3cccs3)sc1CC2" has inhibition at least equal to 20%.
FALSE

I'd appreciate it if you could say whether "CC1CCN(C(=O)Nc2ccc3nsnc3c2)CC1" has inhibition at least equal to 20%.
TRUE

I'd appreciate it if you could say whether "N#CC1=C(N)OC2=C(C(=O)CCC2)C12CCN(C(=O)OCc1ccccc1)CC2" has inhibition at least equal to 20%.
FALSE

I'd appreciate it if you could say whether "Cc1nc2ccc(NC(=S)N3CCN(c4ccccn4)CC3)cc2nc1C" has inhibition at least equal to 20%.
FALSE
